B1: tRNA (parent)
chain: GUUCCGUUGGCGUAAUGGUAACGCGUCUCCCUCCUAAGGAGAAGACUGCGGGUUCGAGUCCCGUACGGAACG

Variants of: B1
Assay notes: yeast fitness relative to wild type (ratio to wild type); higher = fitter; tRNA-Arg(CCU), competitive growth, 37 C, YPD
Fewer inactive variants are shown than the library holds.
Some variants, each annotated with its measured yeast fitness.

# example entries with known answers
[
  {
    "Chain": "GUUCCGUUGGCGUAAUGGUAAUGCGUCUGCCUCCUUAGGACAAGCCUGUGGGUCCGAGUCUCGUACGGAACG [C22U C29G A36U G41C A45C C49U U54C C61U]",
    "yeast fitness": "≤ 0.5"
  },
  {
    "Chain": "GUUCCGUUGAAGUAAUGGUAACGCGUCUCCCUCCUAAGGAGAAGACUGCGGGUUCGAGUCCCGUACCGAACG [G10A C11A G67C]",
    "yeast fitness": "≤ 0.5"
  },
  {
    "Chain": "GUUCCGUUGGCGUUAUGGUAACGCGUCUCCCUCCUAAGGUGAAGACUGCGGGUAUGAGUCCCGCACGGAACG [A14U A40U U54A C55U U64C]",
    "yeast fitness": "≤ 0.5"
  },
  {
    "Chain": "GUUCCGUGGGCGUAAUGGUAACGCGUCUCCCUCCUAAGGAGAAGACUGCGGGUUCGCGUCCCGUACGGAACG [U8G A57C]",
    "yeast fitness": "≤ 0.5"
  },
  {
    "Chain": "GUUCCGUUGGCGUAAUGGUGACGCAUCUCCCUCAUGAGGAGAAGACUGCCGGUUCGAGUCCCGUACGGAACG [A20G G25A C34A A36G G50C]",
    "yeast fitness": "≤ 0.5"
  },
  {
    "Chain": "GUUCCGUUGGCGUAAUGGUAACGCGUGUCCCUCCUAAGGAGAAGACUGAGGCUUCGAGUUCCGUACGGAACG [C27G C49A G52C C60U]",
    "yeast fitness": "≤ 0.5"
  },
  {
    "Chain": "GUUCCGUUGGCGUAUUGGUAACGCGUCUCCCUCCUAAGGAGAAGACCGGGGGUUUGAGUCCCGUUCGGAACG [A15U U47C C49G C55U A65U]",
    "yeast fitness": 0.531
  },
  {
    "Chain": "GUUCCGUUGACGUAAUGGAAACGCGUCUCCCUCCUAAGGAGGAGACUGCGGGUUCGAGUCCCGAACGGAACG [G10A U19A A42G U64A]",
    "yeast fitness": 0.612
  }
]

Lookup result for GUUCCGCUGGCAUAAUGGUAACGCGUCUCCUUCCUAAGGAGAAGACUGCGGAUUCGAGUCCCGUACGGAACG [U7C G12A C31U G52A] ; measured yeast fitness: ≤ 0.5

Lookup result for GAUCCGUUGGCGUAAUGGUAACGCGUCUCCCUCCUAAGGAGAAAACUGCGGGUUCGAGUCCCGUAUGGAACG [U2A G44A C66U] ; measured yeast fitness: 0.588

Lookup result for GUUCCGUUGGCGUACUGGUAAGGCGUCUCCCUCCUAAGGAGACGACUGCGGCUUCGAGUCCCGUACGGAACG [A15C C22G A43C G52C] ; measured yeast fitness: ≤ 0.5
